Would you kindly list 5-HIAA MED (minimum effective dose lowering brain 5-HIAA levels) for each of these compounds?
- TESTED TARGET: 5-HT1A receptors (Rattus norvegicus, UniProt P19327)
- Construct: from tissue; host or cells: cerebral cortex (crude synaptosomal membranes) of male Sprague-Dawley rats
- Sequence (P19327 whole entry): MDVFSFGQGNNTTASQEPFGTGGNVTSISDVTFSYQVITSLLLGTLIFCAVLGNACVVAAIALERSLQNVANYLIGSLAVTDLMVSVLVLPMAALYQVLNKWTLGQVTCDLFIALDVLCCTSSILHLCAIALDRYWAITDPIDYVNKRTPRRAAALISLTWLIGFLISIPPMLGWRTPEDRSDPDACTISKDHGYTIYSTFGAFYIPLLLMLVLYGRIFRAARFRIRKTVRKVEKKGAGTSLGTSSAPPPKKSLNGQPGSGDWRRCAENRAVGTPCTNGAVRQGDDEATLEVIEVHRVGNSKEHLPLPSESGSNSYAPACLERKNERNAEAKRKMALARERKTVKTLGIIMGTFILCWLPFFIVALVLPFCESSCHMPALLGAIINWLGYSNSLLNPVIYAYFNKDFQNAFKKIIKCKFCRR
- ASSAY PROCEDURE: in vivo lowering of brain 5-HIAA levels (5-HT1A agonist activity)
- Design: species or system rat (male Sprague-Dawley)
- APPLIED CONDITIONS: sc, one hour after treatment
- Procedure: Compounds of this invention were also examined for their in vivo effects on brain 5-HIAA and serum corticosterone levels. […] The concentration of corticosterone in the serum was determined by the spectrofluorometric method of Solem, J. H.; Brinck-Johnsen, T., Scand. […] 5-HIAA concentrations were measured by liquid chromatography with electrochemical detection as described by Fuller, R. W.; Snoddy, H. D.; Perry, K. W., Life Sci. 40, 1921 (1987). […]

Query: What value of 5-HIAA MED (minimum effective dose lowering brain 5-HIAA levels) on 5-HT1A receptors (Rattus norvegicus, UniProt P19327) does CCCN(CCC)C1CCc2cccc(-c3cc(Br)no3)c2C1 (stereo not drawn) have?
Response: > 1.0 mg/kg

Query: What value of 5-HIAA MED (minimum effective dose lowering brain 5-HIAA levels) on 5-HT1A receptors (Rattus norvegicus, UniProt P19327) does CCCN(CCC)C1CCc2cccc(-c3ccon3)c2C1 (stereo not drawn) have?
Response: 0.3 mg/kg

Query: What value of 5-HIAA MED (minimum effective dose lowering brain 5-HIAA levels) on 5-HT1A receptors (Rattus norvegicus, UniProt P19327) does CCCN(CCC)C1CCc2cccc(-c3cc(C)on3)c2C1 (stereo not drawn) have?
Response: > 1.0 mg/kg

Query: What value of 5-HIAA MED (minimum effective dose lowering brain 5-HIAA levels) on 5-HT1A receptors (Rattus norvegicus, UniProt P19327) does CCCN(CCC)C1CCc2cccc(-c3cc(C)no3)c2C1 (stereo not drawn) have?
Response: 1.0 mg/kg

Query: What value of 5-HIAA MED (minimum effective dose lowering brain 5-HIAA levels) on 5-HT1A receptors (Rattus norvegicus, UniProt P19327) does CCCN(CCC)C1CCc2cccc(-c3cc(SC)no3)c2C1 (stereo not drawn) have?
Response: > 1.0 mg/kg

Query: What value of 5-HIAA MED (minimum effective dose lowering brain 5-HIAA levels) on 5-HT1A receptors (Rattus norvegicus, UniProt P19327) does CCCN(CCC)C1CCc2cccc(-c3ccn(C)n3)c2C1 (stereo not drawn) have?
Response: > 1.0 mg/kg

###

- TESTED TARGET: 5-HT1A receptors (Rattus norvegicus, UniProt P19327)
- ASSAY PROCEDURE: in vitro binding: inhibition of 3H-8-OH-DPAT binding to synaptosomal membranes from rat cerebral cortex
- APPLIED CONDITIONS: 3H-8-OH-DPAT 2 nM, 37° C., 10 min, pH 7.4
MEASUREMENT KIND: IC50 (nM)
The answer is to be given in nM; state only the numeric part.

Query: Given the compound CCCN(CCC)C1CCc2cccc(-c3nccs3)c2C1 (centres unmarked) , what is its reported IC50?
Response: 12

Query: Given the compound CCCN(CCC)C1CCc2cccc(-c3cccnc3)c2C1 (centres unmarked) , what is its reported IC50?
Response: 7.2

Query: Given the compound CCCN(CCC)C1CCc2cccc(-c3ccnn3C)c2C1 (centres unmarked) , what is its reported IC50?
Response: 7.2

Query: Given the compound CCCN(CCC)C1CCc2cccc(-c3cnc4ccccc4c3)c2C1 (centres unmarked) , what is its reported IC50?
Response: 16

Query: Given the compound CCCN(CCC)C1CCc2cccc(-c3nc(C)no3)c2C1 (centres unmarked) , what is its reported IC50?
Response: 16

Query: Given the compound CCCN(CCC)C1CCc2cccc(-c3nocc3C)c2C1 (centres unmarked) , what is its reported IC50?
Response: 6.4

Query: Given the compound CCCN(CCC)C1CCc2cccc(-c3nc(-c4ccccc4)no3)c2C1 (centres unmarked) , what is its reported IC50?
Response: 11

Query: Given the compound CCCN(CCC)C1CCc2cccc(-c3ccncc3)c2C1 (centres unmarked) , what is its reported IC50?
Response: 9.8
